- System: Acinetobacter baumannii
- Test: Antibacterial activity against multidrug-resistant Acinetobacter baumannii clinical isolate E2-1228625 after 18 hrs by microdilution broth method
- Type: functional
- Run Conditions: clinical isolate E2-1228625, 18 h
Square brackets hold non-standard residues; d marks the D form. Peptide text beside a SMILES is read from it. hArg = N=C(N)NCCCC[C@H](N)C(=O)O; Nspe = C[C@H](NCC(=O)O)c1ccccc1
Endpoint Name: MIC (µM)
Answers are plain numbers, in µM.

Could you share which MIC value was measured for CC(=O)N[C@@H](CCCCN)C(=O)N(CC(=O)N[C@@H](CCCCNC(=N)N)C(=O)N(CC(=O)N[C@@H](CCCCN)C(=O)N(CC(=O)N[C@@H](CCCCNC(=N)N)C(=O)N(CC(=O)N[C@@H](CCCCN)C(=O)N(CC(=O)N[C@@H](CCCCNC(=N)N)C(=O)N(CC(N)=O)[C@@H](C)c1ccccc1)[C@@H](C)c1ccccc1)[C@@H](C)c1ccccc1)[C@@H](C)c1ccccc1)[C@@H](C)c1ccccc1)[C@@H](C)c1ccccc1 (Ac-K[Nspe][hArg][Nspe]K[Nspe][hArg][Nspe]K[Nspe][hArg][Nspe]-NH2) ? 2

###

- Test: Cytotoxicity against mouse NIH/3T3 cells after 1 hr by MTS/PMS assay
- Format: cell-based
- Run Conditions: NIH3T3, 1 h
Square brackets hold non-standard residues; d marks the D form. Peptide text beside a SMILES is read from it. hArg = N=C(N)NCCCC[C@H](N)C(=O)O; Nspe = C[C@H](NCC(=O)O)c1ccccc1
Answer each item with its documented pIC50.
Numbers only, as −log10 of the molar value.

INSERT INTO results (molecule, endpoint_name, observed_value) VALUES
  ('CC(=O)N[C@@H](CCCCN)C(=O)N(CC(=O)N[C@@H](CCCCNC(=N)N)C(=O)N(CC(=O)N[C@@H](CCCCN)C(=O)N(CC(=O)N[C@@H](CCCCNC(=N)N)C(=O)N(CC(=O)N[C@@H](CCCCN)C(=O)N(CC(=O)N[C@@H](CCCCNC(=N)N)C(=O)N(CC(N)=O)[C@@H](C)c1ccccc1)[C@@H](C)c1ccccc1)[C@@H](C)c1ccccc1)[C@@H](C)c1ccccc1)[C@@H](C)c1ccccc1)[C@@H](C)c1ccccc1 (Ac-K[Nspe][hArg][Nspe]K[Nspe][hArg][Nspe]K[Nspe][hArg][Nspe]-NH2)', 'pIC50', 3.92);

Could you share which pIC50 value was measured for "CC(=O)N[C@@H](CCCCN)C(=O)N(CCC(=O)N[C@@H](CCCCNC(=N)N)C(=O)N(CCC(=O)N[C@@H](CCCCN)C(=O)N(CCC(=O)N[C@@H](CCCCNC(=N)N)C(=O)N(CCC(=O)N[C@@H](CCCCN)C(=O)N(CCC(=O)N[C@@H](CCCCNC(=N)N)C(=O)N(CCC(N)=O)[C@@H](C)c1ccccc1)[C@@H](C)c1ccccc1)[C@@H](C)c1ccccc1)[C@@H](C)c1ccccc1)[C@@H](C)c1ccccc1)[C@@H](C)c1ccccc1" ? 3.87

###

- Test: Cytotoxicity against mouse NIH/3T3 cells after 1 hr by MTS/PMS assay
- Assay type: cell-based
- Run Conditions: NIH3T3, 1 h
Square brackets hold non-standard residues; d marks the D form. Peptide text beside a SMILES is read from it. hArg = N=C(N)NCCCC[C@H](N)C(=O)O; Nspe = C[C@H](NCC(=O)O)c1ccccc1; Nphe = O=C(O)CNCc1ccccc1
Please respond with class 1 when measured IC50 is strictly beneath 200 µM, and with class 0 in all other cases.

Here are 4 compounds together with their reported answers.
INSERT INTO results (compound, class_name) VALUES
  ('CC(=O)N[C@@H](CCCCNC(=N)N)C(=O)N(CCC(=O)N[C@@H](CCCCN)C(=O)N(CCC(=O)N[C@@H](CCCCNC(=N)N)C(=O)N(CCC(=O)N[C@@H](CCCCN)C(=O)N(CCC(=O)N[C@@H](CCCCNC(=N)N)C(=O)N(CCC(N)=O)Cc1ccccc1)Cc1ccccc1)Cc1ccccc1)Cc1ccccc1)Cc1ccccc1', 'class 0'),
  ('CC(=O)N[C@@H](CCCCN)C(=O)N(CCC(=O)N[C@@H](CCCCNC(=N)N)C(=O)N(CCC(=O)N[C@@H](CCCCN)C(=O)N(CCC(=O)N[C@@H](CCCCNC(=N)N)C(=O)N(CCC(=O)N[C@@H](CCCCN)C(=O)N(CCC(=O)N[C@@H](CCCCNC(=N)N)C(=O)N(CCC(=O)N[C@@H](CCCCN)C(=O)N(CCC(N)=O)Cc1ccccc1)Cc1ccccc1)Cc1ccccc1)Cc1ccccc1)Cc1ccccc1)Cc1ccccc1)Cc1ccccc1', 'class 1'),
  ('CC(=O)N[C@@H](CCCCNC(=N)N)C(=O)N(CC(=O)N[C@@H](CCCCN)C(=O)N(CC(=O)N[C@@H](CCCCNC(=N)N)C(=O)N(CC(=O)N[C@@H](CCCCN)C(=O)N(CC(=O)N[C@@H](CCCCNC(=N)N)C(=O)N(CC(N)=O)[C@@H](C)c1ccccc1)[C@@H](C)c1ccccc1)[C@@H](C)c1ccccc1)[C@@H](C)c1ccccc1)[C@@H](C)c1ccccc1 (Ac-[hArg][Nspe]K[Nspe][hArg][Nspe]K[Nspe][hArg][Nspe]-NH2)', 'class 0'),
  ('CC(=O)N[C@@H](CCCCN)C(=O)N(CC(=O)N[C@@H](CCCCNC(=N)N)C(=O)N(CC(=O)N[C@@H](CCCCN)C(=O)N(CC(=O)N[C@@H](CCCCNC(=N)N)C(=O)N(CC(=O)N[C@@H](CCCCN)C(=O)N(CC(=O)N[C@@H](CCCCNC(=N)N)C(=O)N(CC(N)=O)Cc1ccccc1)Cc1ccccc1)Cc1ccccc1)Cc1ccccc1)Cc1ccccc1)Cc1ccccc1 (Ac-K[Nphe][hArg][Nphe]K[Nphe][hArg][Nphe]K[Nphe][hArg][Nphe]-NH2)', 'class 0');

Here is another compound to look at.
# strict comparison: is reported IC50 < 200 µM? input = CC(=O)N[C@@H](CCCCN)C(=O)N(CC(=O)N[C@@H](CCCCNC(=N)N)C(=O)N(CC(=O)N[C@@H](CCCCN)C(=O)N(CC(=O)N[C@@H](CCCCNC(=N)N)C(=O)N(CC(=O)N[C@@H](CCCCN)C(=O)N(CC(=O)N[C@@H](CCCCNC(=N)N)C(=O)N(CC(=O)N[C@@H](CCCCN)C(=O)N(CC(N)=O)Cc1ccccc1)Cc1ccccc1)Cc1ccccc1)Cc1ccccc1)Cc1ccccc1)Cc1ccccc1)Cc1ccccc1 (Ac-K[Nphe][hArg][Nphe]K[Nphe][hArg][Nphe]K[Nphe][hArg][Nphe]K[Nphe]-NH2) class 0
